Tested on: NCI-H358
Experiment: relative viability (nuclei count vs DMSO), 5 days (fraction); higher = more cells survive
Conditions: first compound 0.5 µM
Below: a set of entries, each annotated with reported relative viability.
endpoint-label: relative viability

[[record]]
compound = "Nc1ccn([C@@H]2O[C@H](CO)[C@@H](O)[C@@H]2O)c(=O)n1 [Cytarabine] + CC(=O)Nc1cccc(-n2c(=O)n(C3CC3)c(=O)c3c(Nc4ccc(I)cc4F)n(C)c(=O)c(C)c32)c1 [Trametinib] (partner 0.02 µM)"
endpoint_label = "relative viability"
reported_measurement = 0.0812

[[record]]
compound = "Nc1ccn([C@@H]2O[C@H](CO)[C@@H](O)[C@@H]2O)c(=O)n1 [Cytarabine] + CS(=O)(=O)CCNCc1ccc(-c2ccc3ncnc(Nc4ccc(OCc5cccc(F)c5)c(Cl)c4)c3c2)o1 [Lapatinib] (partner 2 µM)"
endpoint_label = "relative viability"
reported_measurement = 0.176

[[record]]
compound = "Nc1ccn([C@@H]2O[C@H](CO)[C@@H](O)[C@@H]2O)c(=O)n1 [Cytarabine] + Cc1nc(Nc2ncc(C(=O)Nc3c(C)cccc3Cl)s2)cc(N2CCN(CCO)CC2)n1 [Dasatinib] (partner 0.075 µM)"
endpoint_label = "relative viability"
reported_measurement = 0.0702

[[record]]
compound = "COc1cc2nccc(Oc3ccc(NC(=O)Nc4cc(C)on4)c(Cl)c3)c2cc1OC [Tivozanib] + Nc1ncn([C@H]2C[C@H](O)[C@@H](CO)O2)c(=O)n1 [Decitabine] (partner 2 µM)"
endpoint_label = "relative viability"
reported_measurement = 0.206


Numbers sourced from the supplement of paper PMC10307832.
